# Test system: Chordin-like protein 2 (CHRDL2)
# ASSAY_EXPLANATION: CHRDL2 small-molecule binders, primary screen, biochemical, small-molecule microarray, 635 nm fluorescence (AID 1126);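 also: printed compound slides probed with Chrdl2 protein at 4 µg/mL for 1 h at 4 C; score merges 667 nm emission intensity with signal to noise over three replicate slides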
# PARTICULARS: small-molecule microarray binding, fluorescence 635 nm; higher = more signal
REPORTED_ENDPOINT: composite z-score
Output spec: single numeric token, no unit.

Below, each entry is followed by its recorded composite z-score result.
C=CCC(OC(C)=O)[C@@H]1[C@@H](N(Cc2cccc3ccccc23)C(=O)Cc2ccc(OC)cc2)c2cc(OCCCO)ccc2N1C(=O)c1ccc2ccccc2n1 (some centres undefined); 0.173
CC(CO)N1C(=O)[C@@H]2[C@H]3C(=O)OCC=C[C@H]3OC23C=CCN(Cc2ccccc2)C(=O)[C@@H]13 (some centres undefined); -0.42
COc1ccc([Si](C)(C)[C@@H]2[C@@H](CC(=O)N(CCO)Cc3ccccc3)O[C@]3(C(=O)N(Cc4cccc(N5C(=O)c6cccc7cccc5c67)c4)c4ccccc43)[C@H]2C)cc1; 0.432

Next item in the queue.
(Q) Query (molecule): "[N-]=[N+]=NCc1ccccc1C[C@@]1(C(=O)N2CCOCC2)N=C(c2ccc(OCCCO)cc2)O[C@@H]1c1ccccc1" ; field requested: composite z-score
(A) -0.577

----------
# ASSAY_EXPLANATION: basal RPMI8226 viability, no added stimulus, profiling panel, cell-based, calcein-AM fluorescence, 48 h, PK04 Diversity Set (AID 1166);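 also: cells grown under basal conditions without added stimulus; test concentration not given here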
# PARTICULARS: RPMI8226 myeloma viability, higher = more signal
Label label 1 when z-score is strictly below -0.9; at or above that, label label 0.

Recorded results for 5 compounds are shown here.
CCOC(=O)c1ccc(NC(=O)O[C@H]2[C@H](OC(=O)Nc3ccc4c(c3)OCO4)[C@@H](OC(=O)Nc3ccc4c(c3)OCO4)[C@@H](OC)O[C@@H]2CO)cc1; label 0
COC(=O)[C@@]1(Cc2ccc(OC)cc2)[C@@H]2C(=CC(=O)[C@H]2CC(=O)C(=O)N(C)C)CN1C(=O)c1ccccc1; label 1
COC(=O)[C@@]1(Cc2ccc(F)cc2)[C@H]2c3cc(C(=O)N4CCCC4)n(CCN4CNCC4=O)c3C[C@H]2CN1C(=O)c1ccccc1; label 1
CC(=O)NCCCC[C@@H]1NC(=O)[C@@H]2C[C@H](C(=O)NCCCC[N+](C)(C)C)[C@H](c3ccc(O)cc3)N2C1=O; label 0
COC(=O)[C@@]1(Cc2ccc(OC)cc2)[C@H]2c3cc(C(=O)N4CCCC4)n(Cc4c(-c5ccccc5)noc4C)c3C[C@H]2CN1C(=O)c1ccccc1; label 1

(Q) Is z-score strictly under -0.9 for the entry "C=CCOC(=O)[C@H]1[C@@H]2C(=O)O[C@@H](c3ccccc3)[C@@H](c3ccccc3)N2[C@@H](c2ccc(OCCOC(=O)[C@@H]3C[C@@H]4C(=O)N[C@@H](CCCCN(C)C)C(=O)N4[C@@H]3c3ccc(O)cc3)cc2)[C@]12C(=O)Nc1ccccc12" ?
(A) label 0

(Q) In plain terms, does "NCCCCCNC(=O)[C@@H]1C[C@@H]2C(=O)NCC(=O)N2[C@@H]1c1cccc(OCCO)c1" come in under -0.9 for z-score?
(A) label 1

----------
# ASSAY_EXPLANATION: A549 cell viability effects, profiling panel, calcein-AM fluorescence, 48 h, basal (AID 1162); also: test concentration not given here
# PARTICULARS: higher = more signal
REPORTED_ENDPOINT: z-score
Give the value as a plain number.

(Q) Requested field: z-score. Item: "COc1ccc(CN(C2=CC[C@@]3(C(N)=O)C(=O)C(Cl)=C(Cl)C(=O)[C@@]3(C#N)C2)S(=O)(=O)c2ccc(Br)cc2)cc1"
(A) 0.236

(Q) Requested field: z-score. Item: "CCOC(=O)C[C@H]1[C@H](OC(=O)Cc2ccc3c(c2)OCO3)[C@@H](NC(=O)Cc2ccc(OC)cc2)c2cc(OCCCO)ccc2N1C(=O)c1ccc2ccccc2n1"
(A) 2.47

(Q) GET /values?readout=z-score&item= C=CCC(OC(C)=O)[C@@H]1[C@@H](N(Cc2ccc(-c3ccccc3)cc2)C(=O)Cc2ccc(F)cc2)c2cc(OCCCO)ccc2N1C(=O)Cc1ccc(OC)cc1 (some centres undefined)
(A) 0.178

(Q) Name the recorded z-score for "O=C1O[C@H](c2ccccc2)[C@H](c2ccccc2)N2[C@H]1[C@@H](C(=O)N1CCN(c3ncccn3)CC1)[C@]1(C(=O)Nc3ccc(C#CC4(O)CCCCCC4)cc31)[C@H]2c1ccc(OCCO)cc1" .
(A) 0.282

(Q) Request the reported z-score associated with "CC(C)C(=C=CC[C@H](O)c1ccc(OCCO)cc1)C[C@H](O)c1ccccn1"
(A) 1.84

(Q) Consider the compound "COC(=O)[C@@]1(Cc2ccccc2N=[N+]=[N-])N=C(c2ccc(OCCCO)cc2)O[C@H]1c1ccccc1N=[N+]=[N-]" and give its measured z-score.
(A) -1.53

(Q) Which z-score value is on record for CC(C)(C)N1CC=CC23O[C@@H]4C=CCOC(=O)[C@@H]4[C@H]2C(=O)N(CCCCCCO)[C@@H]3C1=O (some centres undefined) ?
(A) -0.127

(Q) Find the recorded z-score belonging to [N-]=[N+]=Nc1ccccc1[C@@H]1OC(c2ccc(OCCCO)cc2)=N[C@]1(Cc1ccccc1)C(=O)NCC(O)CO (some centres undefined) and report it.
(A) -0.828

(Q) What does the data say about its z-score? Entry: COc1ccc(C(O)C2C=CC3C(=O)N(c4ccccc4)C(=O)C3N2Nc2ccc([N+](=O)[O-])cc2)cc1 (centres undefined)
(A) -0.27

(Q) Requested field: z-score. Item: "COc1ccc(C#Cc2ccc3c(c2)[C@]2(C(=O)N3)[C@H](c3ccc(O)cc3)N3[C@H](c4ccccc4)[C@H](c4ccccc4)OC(=O)[C@H]3[C@@H]2C(=O)O)cc1"
(A) -0.884

----------
# TEST_SYSTEM: Fibroblast growth factor 10 (Homo sapiens)
# ASSAY_EXPLANATION: FGF10 binders on small-molecule microarrays, primary screen, biochemical, small-molecule microarray, 635 nm fluorescence (AID 1102)
# PARTICULARS: FGF10 binding, fluorescence 635 nm, higher = more signal
REPORTED_ENDPOINT: composite z-score
Number only, please.

[N-]=[N+]=Nc1ccccc1[C@H]1OC(c2ccc(OCCCO)cc2)=N[C@@]1(Cc1ccccc1)C(=O)N1CCCCC1; 1.45
CCOC(=O)c1ccc(NC(=O)O[C@H]2[C@H](OC(=O)Nc3ccc4c(c3)OCO4)[C@@H](OC(=O)Nc3ccc4c(c3)OCO4)[C@@H](OC)O[C@@H]2CO)cc1; 1.4
NCCCCCNC(=O)[C@@H]1C[C@@H]2C(=O)NCC(=O)N2[C@@H]1c1cccc(OCCO)c1; 1
CCCNC(=O)[C@@]1(c2ccc([N+](=O)[O-])cc2)CC(=O)N(C2CCCCC2)[C@@H]1c1ccc(CO)cc1; 0.946
COCCOC(=O)N1C(=O)[C@@]2(c3cc(C#CC4=CCCCC4)ccc31)[C@H](c1ccc(OCCO)cc1)N1[C@H](c3ccccc3)[C@H](c3ccccc3)OC(=O)[C@H]1[C@@H]2C(=O)N1CCN(c2ncccn2)CC1; 1.34
CC(=O)c1ccc(C(O)C2C=CC3C(=O)N(c4ccccc4)C(=O)C3N2Nc2ccc(C#N)cc2)cc1 (configuration not stated); -0.0433

(Q) Dear colleague, I am looking for the recorded composite z-score of the following compound: O=C1C2C=CC(C(O)c3ccccc3)N(Nc3ccccc3F)C2C(=O)N1c1ccccc1 (configuration not stated)
(A) 0.311

----------
# ASSAY_EXPLANATION: PSAC antagonists in infected red cells, primary screen, cell-based, P. falciparum Indochina, OD700, 18 h (AID 1157)
# PARTICULARS: P. falciparum Indochina infected erythrocytes, osmotic lysis OD700, 18 h; higher = more signal, called active from +8 up or from −8 down
Records here are stratified by z-score; strata: low group (below 0.2), middle group (0.2 to below 0.7), high group (0.7 or more)

C=CCC(OC(C)=O)[C@@H]1[C@@H](N(Cc2cc3ccccc3o2)C(=O)Cc2ccc(F)cc2)c2cc(OCCCO)ccc2N1C(=O)c1ccc2ccccc2c1 (stereo partly drawn); low group
CCCCN1CC=CC23O[C@@H]4/C=C\CCC(C)OC(=O)C4[C@H]2C(=O)N(C(CO)C(C)C)[C@@H]3C1=O (stereo partly drawn); middle group
O=C1O[C@H](c2ccccc2)[C@H](c2ccccc2)N2[C@H]1[C@@H](C(=O)N1CCN(c3ncccn3)CC1)[C@]1(C(=O)Nc3ccc(C#CC4(O)CCCCCC4)cc31)[C@H]2c1ccc(OCCO)cc1; high group
COCCOC(=O)N1C(=O)[C@@]2(c3cc(C#Cc4ccc(OC)cc4)ccc31)[C@H](c1ccc(O)cc1)N1[C@H](c3ccccc3)[C@H](c3ccccc3)OC(=O)[C@H]1[C@@H]2C(=O)N1CCCCCCC1; low group
COc1ccc(NC(=O)O[C@H]2[C@H](OC(=O)Nc3ccccc3)[C@@H](OC(=O)Nc3ccccc3)[C@@H](OC)O[C@@H]2CO)cc1; middle group
[N-]=[N+]=NCc1ccccc1C[C@@]1(C(=O)NCc2ccccc2)N=C(c2ccc(OCCCO)cc2)O[C@@H]1c1ccccc1N=[N+]=[N-]; high group
COc1ccc([Si](C)(C)[C@@H]2[C@@H](CC(=O)N(CCO)Cc3ccccc3)O[C@]3(C(=O)N(Cc4cccc(N5CCOC5=O)c4)c4ccccc43)[C@H]2C)cc1; high group
CCCC[C@@H]1C[C@H]1[C@@H](NC(=O)c1ccccc1)c1ccc(C(F)(F)F)cc1; high group

(Q) Which class holds "CCOC(=O)c1ccc(NC(=O)O[C@H]2[C@H](OC(=O)Nc3ccc4c(c3)OCO4)[C@@H](OC(=O)Nc3ccc4c(c3)OCO4)[C@@H](OC)O[C@@H]2CO)cc1" ?
(A) middle group

(Q) For this compound, which bin applies? C=CCC(OC(C)=O)[C@@H]1[C@@H](N(Cc2ccc(-c3cccc(C(F)(F)F)c3)o2)C(=O)c2ccc(-c3ccccc3)cc2)c2cc(OCCCO)ccc2N1C(=O)c1ccc2ccccc2n1 (stereo partly drawn)
(A) low group

(Q) Would you mind sorting CC(c1ccccc1)C(O)C1C=CC2C(=O)N(c3ccccc3)C(=O)C2N1Nc1ccc([N+](=O)[O-])cc1 (stereo not drawn) into the appropriate category?
(A) high group

(Q) Which class does "O=C1C=C(c2ccccc2)C(=O)c2ccc([C@H]3Oc4ccccc4S(=O)(=O)N4CCC[C@@H]34)cc21" fall in?
(A) low group
